- Test system: Aphis craccivora
- assay_text: Insecticidal activity against Aphis craccivora (cowpea aphid) infested tender soybean shoots exposed to compound solution assessed as insect mortality measured 24 hr post compound treatment (reference value: 4.1%)
- Type: functional
Examples of compounds with documented LC50 follow.

>  <compound>
O=[N+]([O-])/N=C1\NCCN1Cc1ccc(Cl)nc1 [IMIDACLOPRID]

>  <LC50 / µM>
35

$$$$
>  <compound>
N#CC1(C#N)C(c2ccco2)C([N+](=O)[O-])=C2N(Cc3ccc(Cl)nc3)CCN2C1c1ccc(C(F)(F)F)c(F)c1 (stereo not given)

>  <LC50 / µM>
87.4

$$$$
>  <compound>
N#CC1(C#N)C(c2ccco2)C([N+](=O)[O-])=C2N(Cc3ccc(Cl)nc3)CCN2C1c1ccc(Cl)cc1C(F)(F)F (stereo not given)

>  <LC50 / µM>
87.2

$$$$
>  <compound>
N#CC1(C#N)C(c2ccco2)C([N+](=O)[O-])=C2N(Cc3ccc(Cl)nc3)CCN2C1c1cc(C(F)(F)F)ccc1F (stereo not given)

>  <LC50 / µM>
113

$$$$
>  <compound>
Cc1ccc(C2N3CCN(Cc4ccc(Cl)nc4)C3=C([N+](=O)[O-])C(c3ccco3)C2(C#N)C#N)c(F)c1 (stereo not given)

>  <LC50 / µM>
5.52

$$$$
